- Tested on: Arthrobacter sp. strain 1N
- protocol text: Antibiotic MIC by E-test
- Format: cell-based
- run conditions: Arthrobacter; strain 1N, E-test, 24 h; read-out: MIC threshold values for a given antibiotic
- Experimental: A disc diffusion method was performed to determine the susceptibility of bacteria to the selected antibiotics. […] In the next stage of the research, MIC values of a given antibiotic for the investigated strains were determined, meaning the lowest concentration of the drug, expressed in mg/L, determined in vitro, which inhibits the growth of bacteria at a defined inoculum density, within a given time (Hryniewicz et at, 2001). […]
Items are presented alongside their recorded MIC.

{"molecule": "CN(C)[C@@H]1C(O)=C(C(N)=O)C(=O)[C@@]2(O)C(O)=C3C(=O)c4c(O)cccc4[C@@](C)(O)[C@H]3C[C@@H]12 [TE, tetracycline]", "uom": "µg/mL", "inequality sign": "=", "MIC": 6}
{"molecule": "Cc1cc(NS(=O)(=O)c2ccc(N)cc2)no1 [RL, sulfamethoxazole]", "uom": "µg/mL", "inequality sign": "=", "MIC": 12}
{"molecule": "CCn1cc(C(=O)O)c(=O)c2cc(F)c(N3CCNCC3)cc21 [NX, norfloxacin]", "uom": "µg/mL", "inequality sign": "=", "MIC": 96}
{"molecule": "O=C(O)c1cn(C2CC2)c2cc(N3CCNCC3)c(F)cc2c1=O [CIP, ciprofloxacin]", "uom": "µg/mL", "inequality sign": "≥", "MIC": 32}

====

Entries and their MIC
- Test system: Stenotrophomonas sp. strain 2L
- protocol text: Antibiotic MIC by E-test
- Type: cell-based
- run conditions: Stenotrophomonas, 24 h, read-out: MIC threshold values for a given antibiotic
property name: MIC (µg/mL)

{"structure": "CC[C@H]1OC(=O)[C@H](C)[C@@H](O[C@H]2C[C@@](C)(OC)[C@@H](O)[C@H](C)O2)[C@H](C)[C@@H](O[C@@H]2O[C@H](C)C[C@H](N(C)C)[C@H]2O)[C@](C)(O)C[C@@H](C)C(=O)[C@H](C)[C@@H](O)[C@]1(C)O", "assay system": "Stenotrophomonas sp. strain 2L", "property name": "MIC", "uom": "µg/mL", "inequality sign": "≥", "observed result": 256}
{"structure": "Cc1cc(NS(=O)(=O)c2ccc(N)cc2)no1", "assay system": "Stenotrophomonas sp. strain 2L", "property name": "MIC", "uom": "µg/mL", "inequality sign": "=", "observed result": 6}
{"structure": "CO/N=C(\\C(=O)N[C@@H]1C(=O)N2C(C(=O)O)=C(CSc3nc(=O)c(=O)[nH]n3C)CS[C@H]12)c1csc(N)n1", "assay system": "Stenotrophomonas sp. strain 2L", "property name": "MIC", "uom": "µg/mL", "inequality sign": "≥", "observed result": 256}
{"structure": "CC1(C)S[C@@H]2[C@H](NC(=O)Cc3ccccc3)C(=O)N2[C@H]1C(=O)O", "assay system": "Stenotrophomonas sp. strain 2L", "property name": "MIC", "uom": "µg/mL", "inequality sign": "≥", "observed result": 32}
{"structure": "CN(C)[C@@H]1C(O)=C(C(N)=O)C(=O)[C@@]2(O)C(O)=C3C(=O)c4c(O)cccc4[C@@](C)(O)[C@H]3C[C@@H]12", "assay system": "Stenotrophomonas sp. strain 2L", "property name": "MIC", "uom": "µg/mL", "inequality sign": "=", "observed result": 6}
{"structure": "O=C(O)c1cn(C2CC2)c2cc(N3CCNCC3)c(F)cc2c1=O", "assay system": "Stenotrophomonas sp. strain 2L", "property name": "MIC", "uom": "µg/mL", "inequality sign": "≥", "observed result": 32}
{"structure": "[H]/N=C(/N)N[C@H]1[C@H](O)[C@@H](O)[C@H](O[C@@H]2O[C@@H](C)[C@](O)(C=O)[C@H]2O[C@@H]2O[C@@H](CO)[C@H](O)[C@@H](O)[C@@H]2NC)[C@@H](N/C(N)=N\\[H])[C@@H]1O", "assay system": "Stenotrophomonas sp. strain 2L", "property name": "MIC", "uom": "µg/mL", "inequality sign": "=", "observed result": 64}
{"structure": "CCn1cc(C(=O)O)c(=O)c2cc(F)c(N3CCNCC3)cc21", "assay system": "Stenotrophomonas sp. strain 2L", "property name": "MIC", "uom": "µg/mL", "inequality sign": "=", "observed result": 128}
